Target: T1, cynomolgus CCR8 (cynomolgus, UniProt G7NYJ2 1-355)
T1 construct: whole, on cells; also called HEK293-Cynomolgus CCR8; ExpiCHO-S cynomolgus CCR8
T1 sequence (G7NYJ2 entry or part of it): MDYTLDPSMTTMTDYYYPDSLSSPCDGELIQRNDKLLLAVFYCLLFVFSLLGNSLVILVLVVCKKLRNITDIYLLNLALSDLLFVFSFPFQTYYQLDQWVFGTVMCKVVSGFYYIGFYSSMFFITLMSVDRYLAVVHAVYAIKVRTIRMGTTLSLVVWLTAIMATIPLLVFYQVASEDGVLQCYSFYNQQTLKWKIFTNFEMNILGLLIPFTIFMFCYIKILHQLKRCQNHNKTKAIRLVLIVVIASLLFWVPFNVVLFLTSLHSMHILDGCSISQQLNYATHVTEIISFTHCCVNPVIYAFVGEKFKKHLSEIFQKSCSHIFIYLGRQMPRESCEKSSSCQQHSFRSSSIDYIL
Assay: FACS on HEK293-Cynomolgus CCR8 cells
List of Max MFI values.
Field format: number, assumed MFI, no unit text.

input: Max MFI for 234G9C12 (antibody, V domains shown, Murine hybridoma antibody; also called 234G4C12) VH: DVQLQESGPGLVKPSQSLSLTCSVTGYSITSGYYWNWIRQFPGNKLEWMGYTSYDGSNNYNPSFKNRISITRDISKNQFFLKLNSVTTEDTATYYCARQIGLRRGAMDHWGQGTSVTVSS VL: DIQMTQSSSYLSVSLGGRVTITCKASDHINNWLAWYQQKPGNAPRLLISGSTSLRAGVASRFSGSGSGKDYTLTITSLQTEDVATYYCQQYWGIPFTFGGGTKLEIK ?
output: 4140

More entries:
input: I am curious: what Max MFI value has been reported for 160D1E3 (antibody, V domains shown, Murine hybridoma antibody) VH: EVQLVESGGGLVQPKGSLKLSCAASGFTFNTYAMNWVRQAPGKGLEWVARIRSKSNYYATYYADSVKDRFTISRDDSQDMLYLQMNNLKTEDTAIYYCVRGRDYGSSYAMDYWGQGTSVTVSS VL: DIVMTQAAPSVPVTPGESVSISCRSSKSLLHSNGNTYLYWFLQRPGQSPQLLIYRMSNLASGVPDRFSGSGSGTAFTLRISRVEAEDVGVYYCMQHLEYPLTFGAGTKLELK ?
output: 8940

input: Query: Max MFI; subject: 149F2C10 (antibody, V domains shown, also called 1491F2C0) VH: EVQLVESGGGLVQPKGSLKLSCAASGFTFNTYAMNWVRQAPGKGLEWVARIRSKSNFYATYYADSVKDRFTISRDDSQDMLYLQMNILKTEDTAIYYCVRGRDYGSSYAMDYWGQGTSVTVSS VL: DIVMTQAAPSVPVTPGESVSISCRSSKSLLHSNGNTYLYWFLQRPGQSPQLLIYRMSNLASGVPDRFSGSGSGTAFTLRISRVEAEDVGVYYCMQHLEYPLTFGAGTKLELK
output: 8830
